molecular target: T1, His-tagged PCSK9Δhelix (human, UniProt Q8NBP7 31-152; Q8NBP7 168-692); assay: TR-FRET competition (PCSK9Δhelix/Ab20 assay); competitor Ab20
T1 construct: Human PCSK9 M1-Q692 with an engineered TEV site, cut by TEV protease; new N-terminus of the catalytic domain is S-A168; also called His-PCSK9Δhelix; not shown: His tag
T1 sequence (Q8NBP7 31-152, stated change not applied, chain 1 of 2): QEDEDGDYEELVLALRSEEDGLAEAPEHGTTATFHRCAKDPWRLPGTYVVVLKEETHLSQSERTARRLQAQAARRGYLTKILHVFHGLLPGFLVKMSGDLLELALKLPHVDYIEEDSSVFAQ
T1 sequence (Q8NBP7 other isoform, or with tags, fused parts or gaps mutant, chain 2 of 2): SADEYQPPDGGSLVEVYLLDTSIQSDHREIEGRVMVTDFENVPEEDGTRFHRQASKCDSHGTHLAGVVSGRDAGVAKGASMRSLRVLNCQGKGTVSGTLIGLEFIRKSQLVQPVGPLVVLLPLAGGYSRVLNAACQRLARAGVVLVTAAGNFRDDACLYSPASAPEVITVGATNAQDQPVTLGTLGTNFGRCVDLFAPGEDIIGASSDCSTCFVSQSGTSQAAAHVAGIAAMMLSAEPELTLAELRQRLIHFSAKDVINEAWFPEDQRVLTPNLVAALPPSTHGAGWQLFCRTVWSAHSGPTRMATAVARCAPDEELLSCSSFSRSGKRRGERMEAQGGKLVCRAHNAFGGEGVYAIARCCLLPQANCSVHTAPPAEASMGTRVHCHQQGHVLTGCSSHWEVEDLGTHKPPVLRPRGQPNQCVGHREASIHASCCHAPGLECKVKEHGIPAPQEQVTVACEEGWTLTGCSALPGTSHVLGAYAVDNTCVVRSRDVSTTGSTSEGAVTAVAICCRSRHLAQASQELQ
Bridge positions count the residues as written; N and C are the ends. Square brackets hold non-standard residues; d marks the D form. * marks the point of attachment. Fmoc = O=C(OCC1c2ccccc2-c2ccccc21)*; Ahx = NCCCCCC(=O)O
Would you mind telling me the reported IC50 of each entry?

Return the recorded IC50 value; entry: Ac-CRLPWNLQRIGLGC-NH2 (disulfide 1-14; SMILES CC[C@H](C)[C@@H]1NC(=O)[C@H](CCCNC(=N)N)NC(=O)[C@H](CCC(N)=O)NC(=O)[C@H](CC(C)C)NC(=O)[C@H](CC(N)=O)NC(=O)[C@H](Cc2c[nH]c3ccccc23)NC(=O)[C@@H]2CCCN2C(=O)[C@H](CC(C)C)NC(=O)[C@H](CCCNC(=N)N)NC(=O)[C@@H](NC(C)=O)CSSC[C@@H](C(N)=O)NC(=O)CNC(=O)[C@H](CC(C)C)NC(=O)CNC1=O) [Compound 80 (Ac-CRLPWNLQRIGLGC-NH2)] 0.65 µM

Return the recorded IC50 value; entry: Ac-CR[dL]PWNLQRIGLPC-NH2 (disulfide 1-14; SMILES CC[C@H](C)[C@@H]1NC(=O)[C@H](CCCNC(=N)N)NC(=O)[C@H](CCC(N)=O)NC(=O)[C@H](CC(C)C)NC(=O)[C@H](CC(N)=O)NC(=O)[C@H](Cc2c[nH]c3ccccc23)NC(=O)[C@@H]2CCCN2C(=O)[C@@H](CC(C)C)NC(=O)[C@H](CCCNC(=N)N)NC(=O)[C@@H](NC(C)=O)CSSC[C@@H](C(N)=O)NC(=O)[C@@H]2CCCN2C(=O)[C@H](CC(C)C)NC(=O)CNC1=O) [Compound 108 (Ac-CRlPWNLQRIGLPC-NH2)] 28.2 µM

Return the recorded IC50 value; entry: Ac-CRLPWNLQRI[Ahx]C-NH2 (disulfide 1-12; SMILES CC[C@H](C)[C@@H]1NC(=O)[C@H](CCCNC(=N)N)NC(=O)[C@H](CCC(N)=O)NC(=O)[C@H](CC(C)C)NC(=O)[C@H](CC(N)=O)NC(=O)[C@H](Cc2c[nH]c3ccccc23)NC(=O)[C@@H]2CCCN2C(=O)[C@H](CC(C)C)NC(=O)[C@H](CCCNC(=N)N)NC(=O)[C@@H](NC(C)=O)CSSC[C@@H](C(N)=O)NC(=O)CCCCCNC1=O) [Compound 116 (Ac-CRLPWNLQRI-(Ahx)-C-NH2)] 31.6 µM

Return the recorded IC50 value; entry: Fmoc-GSGCWNLKRIGSQGC-NH2 (disulfide 4-15; SMILES CC[C@H](C)[C@@H]1NC(=O)[C@H](CCCNC(=N)N)NC(=O)[C@H](CCCCN)NC(=O)[C@H](CC(C)C)NC(=O)[C@H](CC(N)=O)NC(=O)[C@H](Cc2c[nH]c3ccccc23)NC(=O)[C@@H](NC(=O)CNC(=O)[C@H](CO)NC(=O)CNC(=O)OCC2c3ccccc3-c3ccccc32)CSSC[C@@H](C(N)=O)NC(=O)CNC(=O)[C@H](CCC(N)=O)NC(=O)[C@H](CO)NC(=O)CNC1=O) [Compound 98 (Fmoc-GSG-CWNLKRIGSQGC-NH2)] 3.6 µM
